ASSAY_METHOD_TEXT: Human HepG2 cell viability assay in 384 well format
Type: toxicity, cell-based
Set-up: dose 125 nL, time 70.5 hour; concentration not given beside the values
TEST_CONDITIONS: HepG2 cells, read-out: Inhibition
Parameter cytotoxicity at 70.5 h: see the listing below.
Give the quantity in %, number only.

Exercise: Supply measured cytotoxicity at 70.5 h of Cc1cc(C)c(CNC(=O)C(C)Oc2ccccc2F)c(=O)[nH]1 (centres undefined) in your reply.
Solution: 2.57

Exercise: // Input: CC(NC(=O)NCCc1ccc(Cl)s1)c1ccccn1 (centres undefined) . Output its cytotoxicity at 70.5 h only.
Solution: -2.15

Exercise: Tell me its cytotoxicity at 70.5 h given CCCN1CCN(Cc2cccc(OC(C)C)c2)[C@H]2CS(=O)(=O)C[C@H]21 as the entry.
Solution: 12.5

Exercise: Tell me measured cytotoxicity at 70.5 h for Cc1ccc2nc(NCCCN3CCCCCC3=O)n(C)c(=O)c2c1 please.
Solution: -20

Exercise: Tell me its cytotoxicity at 70.5 h given Cc1ccc(C2(CN3CCN(Cc4cncn4C)CC3)CC2)cc1 as the entry.
Solution: 12.6

Exercise: Specify cytotoxicity at 70.5 h for Cc1nc[nH]c1CN(Cc1ccccc1)Cc1nccs1 and stop.
Solution: -6.42

Data provenance: ChEMBL document CHEMBL3507680
